measurementTarget: Mushroom tyrosinase (mTyr) (Agaricus bisporus, UniProt C7FF04)
Construct: purchased Sigma Chemical Co. T3824-50KU
Sequence (C7FF04 1-392): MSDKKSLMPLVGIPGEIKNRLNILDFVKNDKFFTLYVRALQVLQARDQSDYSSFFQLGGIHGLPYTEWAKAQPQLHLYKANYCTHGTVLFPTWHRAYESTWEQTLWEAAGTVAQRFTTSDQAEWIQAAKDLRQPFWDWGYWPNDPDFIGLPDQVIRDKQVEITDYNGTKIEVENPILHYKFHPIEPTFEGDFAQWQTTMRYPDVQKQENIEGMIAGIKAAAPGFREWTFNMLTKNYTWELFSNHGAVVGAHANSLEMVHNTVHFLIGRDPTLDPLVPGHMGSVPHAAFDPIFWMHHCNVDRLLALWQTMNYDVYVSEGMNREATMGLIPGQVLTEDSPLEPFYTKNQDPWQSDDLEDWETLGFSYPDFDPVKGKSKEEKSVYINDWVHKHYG
assayComment: Mushroom tyrosinase inhibition, L-tyrosine substrate (monophenolase)
Assay type: biochemical
runParameters: mTyr, L-tyrosine substrate (monophenolase); read-out: Mushroom Tyrosinase L-Tyrosine IC50
propertyName: IC50

Answered cases to consult:
compound	IC50
O=C(OC1C2C=COC(OC3OC(CO)C(O)C(O)C3O)C2C2(CO)OC12)c1ccc(O)c(O)c1 (stereo not drawn) [Verproside (1), Verproside]	31.2 µM
COc1ccc(C(=O)OC2C3C=COC(OC4OC(CO)C(O)C(O)C4O)C3C3(CO)OC23)cc1OC (stereo not drawn) [6-O-Veratroyl catalpol (9), 6-O-Veratroyl catalpol]	> 200 µM

Prompt: Give Mushroom tyrosinase (mTyr) (Agaricus bisporus, UniProt C7FF04) IC50 for O=C(/C=C/c1ccc(O)c(O)c1)O[C@@H]1C2C=CO[C@H](O[C@@H]3O[C@H](CO)[C@@H](O)[C@H](O)[C@H]3O)C2[C@]2(CO)O[C@H]12 (stereo partly drawn) [Verminoside (4), Verminoside]
Completion: > 200 µM
